// pIC50 collected for Prostaglandin G/H synthase 2 (Mus musculus, UniProt Q05769)
In textbook form, pIC50 equals minus log to base ten of the concentration in mol/L.

Param readout= pIC50; system= Prostaglandin G/H synthase 2 (Mus musculus, UniProt Q05769); entry= `c1ccc(-c2cc(-c3ccccc3)n3c2CCC3)cc1` ; returns value.
7.30

Given the entry `Clc1ccc(-c2[nH]c(-c3ccc(Cl)cc3)c3c2CCCC3)cc1` , what pIC50 was observed with Prostaglandin G/H synthase 2 (Mus musculus, UniProt Q05769)?
8.30

Missing value: pIC50, Prostaglandin G/H synthase 2 (Mus musculus, UniProt Q05769), entry `c1ccc(-c2cn3c(c2-c2ccccc2)CCC3)cc1` . Fill in?
7.54

Test system Prostaglandin G/H synthase 2 (Mus musculus, UniProt Q05769); read-out pIC50; what value for `Fc1ccc(-c2[nH]c(-c3ccc(-n4ccnc4)cc3)c3c2CCCC3)cc1` ?
7.38

Which pIC50 is reported with Prostaglandin G/H synthase 2 (Mus musculus, UniProt Q05769) for this entry: `CS(=O)(=O)Nn1c(-c2ccccc2)c2c(c1-c1ccccc1)CCCC2` ?
6.30

Continuing:
Missing value: pIC50, Prostaglandin G/H synthase 2 (Mus musculus, UniProt Q05769), entry `Nn1c(-c2ccccc2)c2c(c1-c1ccccc1)CCCC2` . Fill in?
8.74

Field: pIC50 (Prostaglandin G/H synthase 2 (Mus musculus, UniProt Q05769)). Entry: `c1ccc(-c2sc(-c3ccccc3)c3ccccc23)cc1`
7.96

Prostaglandin G/H synthase 2 (Mus musculus, UniProt Q05769) / pIC50 / `COc1ccc(-c2[nH]c(-c3ccc(OC)cc3)c3c2CCCC3)cc1` : value?
7.67

Give recorded pIC50 with Prostaglandin G/H synthase 2 (Mus musculus, UniProt Q05769) for the following compound: `Fc1ccc(-c2[nH]c(-c3ccc(F)cc3)c3c2C2C=CC3C2)cc1`
Sequence (Q05769 whole entry): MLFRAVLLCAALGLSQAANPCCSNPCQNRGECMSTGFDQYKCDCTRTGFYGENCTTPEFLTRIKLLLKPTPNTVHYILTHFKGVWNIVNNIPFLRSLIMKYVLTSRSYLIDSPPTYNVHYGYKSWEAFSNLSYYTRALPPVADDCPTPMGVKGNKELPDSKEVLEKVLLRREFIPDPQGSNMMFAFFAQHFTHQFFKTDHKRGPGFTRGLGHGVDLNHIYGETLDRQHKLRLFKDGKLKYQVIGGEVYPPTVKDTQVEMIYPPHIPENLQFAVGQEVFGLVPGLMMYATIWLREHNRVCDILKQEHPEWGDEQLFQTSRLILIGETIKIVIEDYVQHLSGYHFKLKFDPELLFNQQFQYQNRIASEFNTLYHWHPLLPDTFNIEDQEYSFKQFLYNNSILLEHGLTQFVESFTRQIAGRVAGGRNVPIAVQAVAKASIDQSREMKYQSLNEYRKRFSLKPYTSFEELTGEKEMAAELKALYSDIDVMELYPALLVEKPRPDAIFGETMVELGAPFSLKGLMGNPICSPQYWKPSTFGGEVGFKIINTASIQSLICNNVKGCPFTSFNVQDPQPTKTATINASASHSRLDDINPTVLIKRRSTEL
8.35

Form field: pIC50 recorded for `Fc1ccc(-c2[nH]c(-c3ccc(F)cc3)c3c2C2CCC3CC2)cc1` with Prostaglandin G/H synthase 2 (Mus musculus, UniProt Q05769) (enter value)
9.22

# value lookup — system Prostaglandin G/H synthase 2 (Mus musculus, UniProt Q05769), readout pIC50, item `CSc1ccc(-c2[nH]c(-c3ccc(SC)cc3)c3c2CCCC3)cc1`
6.30

Value wanted: pIC50 (Prostaglandin G/H synthase 2 (Mus musculus, UniProt Q05769)) of entry `c1ccc(-c2cc3n(c2-c2ccccc2)CCC3)cc1`
8.00

Recorded pIC50 for `C1=CC2CCC1c1c(-c3ccccc3)[nH]c(-c3ccccc3)c12` with Prostaglandin G/H synthase 2 (Mus musculus, UniProt Q05769), please?
7.45
